subject.of.test: NK3 (Homo sapiens, UniProt P29371)
Sequence (P29371 whole entry): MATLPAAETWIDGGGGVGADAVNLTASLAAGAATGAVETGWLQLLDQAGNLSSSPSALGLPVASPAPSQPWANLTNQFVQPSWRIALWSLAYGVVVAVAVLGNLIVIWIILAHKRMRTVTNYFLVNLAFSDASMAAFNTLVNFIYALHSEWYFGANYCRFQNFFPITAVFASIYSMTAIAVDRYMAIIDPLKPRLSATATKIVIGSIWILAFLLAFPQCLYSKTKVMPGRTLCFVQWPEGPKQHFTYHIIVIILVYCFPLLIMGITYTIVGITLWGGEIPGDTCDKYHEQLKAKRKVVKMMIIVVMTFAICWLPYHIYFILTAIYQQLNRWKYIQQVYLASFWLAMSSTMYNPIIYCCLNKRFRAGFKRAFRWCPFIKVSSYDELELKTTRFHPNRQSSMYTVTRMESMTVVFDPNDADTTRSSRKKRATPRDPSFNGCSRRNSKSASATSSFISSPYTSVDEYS
test.description: Signal transduction (ST), intracellular Ca++ (FLIPR), NK3
Assay type: cell-based
stated.conditions: antagonist, read-out: NK3 pIC50 (converted)
readout.kind: IC50 (µM)
I only need the number, in µM, no unit after it.

Solved cases (5 shown):
{"compound": "O=C(c1cc(C(F)(F)F)cc(C(F)(F)F)c1)N1CC[C@H](N2CCC3(CC2)CCN(S(=O)(=O)c2c(Cl)cccc2Cl)CC3)C[C@H]1Cc1ccccc1 [Compound 111]", "subject.of.test": "NK3 (Homo sapiens, UniProt P29371)", "IC50, µM": 5.37}
{"compound": "O=C(C1CC1)N1CCC2(CC1)CCN([C@H]1CCN(C(=O)c3cc(C(F)(F)F)cc(C(F)(F)F)c3)[C@H](Cc3ccc(F)c(F)c3)C1)CC2 [Compound 136]", "subject.of.test": "NK3 (Homo sapiens, UniProt P29371)", "IC50, µM": 0.692}
{"compound": "O=C(c1cc(C(F)(F)F)cc(C(F)(F)F)c1)N1CC[C@H](N2CCC3(CC2)CCN(S(=O)(=O)c2ccc(Cl)cc2)CC3)C[C@H]1Cc1ccccc1 [Compound 108]", "subject.of.test": "NK3 (Homo sapiens, UniProt P29371)", "IC50, µM": 3.98}
{"compound": "Cc1ccsc1C(=O)N1CCC2(CC1)CCN([C@H]1CCN(C(=O)c3cc(C(F)(F)F)cc(C(F)(F)F)c3)[C@H](Cc3ccccc3)C1)CC2 [Compound 32]", "subject.of.test": "NK3 (Homo sapiens, UniProt P29371)", "IC50, µM": 6.61}
{"compound": "Cc1nnsc1C(=O)N1CCC2(CC1)CCN(C(=O)[C@H]1CCN(C(=O)c3cc(C(F)(F)F)cc(C(F)(F)F)c3)[C@H](Cc3ccccc3)C1)CC2 [Compound 190]", "subject.of.test": "NK3 (Homo sapiens, UniProt P29371)", "IC50, µM": 3.55}

So, O=C(C1CCOC1)N1CCC2(CC1)CCN([C@H]1CCN(C(=O)c3cc(C(F)(F)F)cc(C(F)(F)F)c3)[C@H](Cc3ccc(Cl)c(Cl)c3)C1)CC2 (stereo partly shown) [Compound 132] ? Its IC50 was 0.912

The value of IC50 measured for the compound O=C(c1cc(C(F)(F)F)cc(C(F)(F)F)c1)N1CC[C@H](N2CCC3(CC2)CCN(S(=O)(=O)c2ccccc2Cl)CC3)C[C@H]1Cc1ccccc1 [Compound 106] turned out to be 0.525

Quick note, IC50 for COc1ccc(S(=O)(=O)N2CCC3(CCN([C@H]4CCN(C(=O)c5cc(C(F)(F)F)cc(C(F)(F)F)c5)[C@H](Cc5ccccc5)C4)CC3)CC2)cc1 [Compound 121] landed at 3.72

---

subject.of.test: NK1 (Homo sapiens, UniProt P25103)
Sequence (P25103 whole entry): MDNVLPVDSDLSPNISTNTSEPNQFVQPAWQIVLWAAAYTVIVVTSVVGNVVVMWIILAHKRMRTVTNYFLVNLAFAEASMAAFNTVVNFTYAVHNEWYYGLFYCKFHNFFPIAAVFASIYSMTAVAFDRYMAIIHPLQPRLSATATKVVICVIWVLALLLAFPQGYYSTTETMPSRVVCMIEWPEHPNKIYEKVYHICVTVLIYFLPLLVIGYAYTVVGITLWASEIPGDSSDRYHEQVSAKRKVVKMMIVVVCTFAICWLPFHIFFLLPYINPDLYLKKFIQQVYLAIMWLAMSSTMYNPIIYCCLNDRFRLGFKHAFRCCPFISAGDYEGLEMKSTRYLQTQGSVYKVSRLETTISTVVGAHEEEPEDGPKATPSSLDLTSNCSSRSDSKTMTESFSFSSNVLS
test.description: Signal transduction (ST), intracellular Ca++ (FLIPR), functional NK1 antagonistic activity
Type: cell-based
stated.conditions: antagonist, read-out: NK1 pIC50 (converted)
Description: This test evaluates in vitro functional NK1 antagonistic activity. For the measurements of intracellular Ca^++ concentrations the cells were grown on 96-well (black wall/transparent bottom) plates from Costar for 2 days until they reached confluence. […] The cells were preincubated with a concentration range of antagonists for 20 min at RT and Ca^++-signals after addition of the agonists were measured in a Fluorescence Image Plate Reader (FLIPR from Molecular Devices, Crawley, England). […]
The following molecules are shown together with reported log10(IC50) values.
Answers are given as log10 of IC50 in µM.

Use the examples below as a reference point.
{"molecule": "Cc1nnsc1C(=O)N1CCC2(CCN(C[C@H]3CCN(C(=O)c4cc(C(F)(F)F)cc(C(F)(F)F)c4)[C@H](Cc4ccccc4)C3)CC2)CC1 [Compound 183]", "subject.of.test": "NK1 (Homo sapiens, UniProt P25103)", "log10(IC50)": -1.77}
{"molecule": "O=C(CN1CCCC1=O)N1CCC2(CC1)CCN([C@H]1CCN(C(=O)c3cc(C(F)(F)F)cc(C(F)(F)F)c3)[C@H](Cc3ccccc3)C1)CC2 [Compound 78]", "subject.of.test": "NK1 (Homo sapiens, UniProt P25103)", "log10(IC50)": -0.57}
{"molecule": "O=C(c1ccc2c(c1)OCO2)N1CCC2(CC1)CCN([C@H]1CCN(C(=O)c3cc(C(F)(F)F)cc(C(F)(F)F)c3)[C@H](Cc3ccccc3)C1)CC2 [Compound 62]", "subject.of.test": "NK1 (Homo sapiens, UniProt P25103)", "log10(IC50)": -0.73}
{"molecule": "O=C(c1cc(C(F)(F)F)cc(C(F)(F)F)c1)N1CC[C@H](N2CCC3(CC2)CCN(S(=O)(=O)Cc2cccc(Cl)c2)CC3)C[C@H]1Cc1ccccc1 [Compound 127]", "subject.of.test": "NK1 (Homo sapiens, UniProt P25103)", "log10(IC50)": -0.58}
{"molecule": "Cc1ccc(C(=O)N2CCC3(CC2)CCN([C@H]2CCN(C(=O)c4cc(C(F)(F)F)cc(C(F)(F)F)c4)[C@H](Cc4ccccc4)C2)CC3)s1 [Compound 30]", "subject.of.test": "NK1 (Homo sapiens, UniProt P25103)", "log10(IC50)": -0.16}

Documented log10(IC50) of O=C(C1CC1)N1CCC2(CCN(C[C@H]3CCN(C(=O)c4cc(C(F)(F)F)cc(C(F)(F)F)c4)[C@H](Cc4ccccc4)C3)CC2)CC1 [Compound 179] : -1.23
